# target of assay: human 20S proteasome (Homo sapiens, UniProt P25788)
# experimental protocol: Ki determinations, non-competitive kinetics with Suc-LLVY-AMC
# Type: biochemical
pKi: −log10 of the molar value. Where no end group is shown, it is not given here.
measurement type: pKi

{"columns": ["residue codes", "pKi"],
 "data": [
  ["RRRPRPPALPRW [Peptide A8W12]", 7.29]
]}

A. RRRPRPPYLPRW [Peptide W12]
B. RRRPRPPYLPR [PR11]
C. RRRPRPPFLPRW [Peptide F8W12]
(Q) Please rank these sequences by pKi in descending order. Return value: ordered labels per request.
(A) A, B, C
